target: Coagulation factor XI (Homo sapiens) (UniProt P03951); assay: FXIa inhibitor IC50 values, dose response, biochemical, hits from single-well screen (AID 721); conditions: purified factor XIa enzymatic assay, fluorescence
Sequence (P03951 19-387 limits assumed): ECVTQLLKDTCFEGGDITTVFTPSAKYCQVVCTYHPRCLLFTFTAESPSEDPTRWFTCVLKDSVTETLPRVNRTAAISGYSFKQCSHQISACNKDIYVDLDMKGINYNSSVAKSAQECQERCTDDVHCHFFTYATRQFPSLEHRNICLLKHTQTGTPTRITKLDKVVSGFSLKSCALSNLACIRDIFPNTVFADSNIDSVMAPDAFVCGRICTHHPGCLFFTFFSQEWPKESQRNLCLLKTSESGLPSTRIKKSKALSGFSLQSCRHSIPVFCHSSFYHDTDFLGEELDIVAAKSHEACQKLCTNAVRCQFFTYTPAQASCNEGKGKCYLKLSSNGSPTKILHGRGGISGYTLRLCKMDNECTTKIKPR
Sequence (P03951 388-625 limits assumed): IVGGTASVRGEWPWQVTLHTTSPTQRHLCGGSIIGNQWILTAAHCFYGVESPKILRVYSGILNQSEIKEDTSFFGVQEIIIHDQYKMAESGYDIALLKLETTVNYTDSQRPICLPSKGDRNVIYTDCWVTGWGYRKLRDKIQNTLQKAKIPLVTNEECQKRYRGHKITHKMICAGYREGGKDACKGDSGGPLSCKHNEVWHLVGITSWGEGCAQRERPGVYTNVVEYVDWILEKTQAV
Calls of active or inactive are those of the source. No rule for the calls is given here.
Respond only with the outcome that fits, drawn from true = active, false = inactive

Worked examples follow.
> print(dat)
                                   compound                                       tgt  category
1  COc1cc(OC)cc(-c2nnc(SCc3cccc(C(=O)O)c3)o2)c1  Coagulation factor XI (Homo sapiens) (UniProt P03951)     false
2  CCC1CC2CC(NC(C)=O)C1C2 (centres undefined)  Coagulation factor XI (Homo sapiens) (UniProt P03951)      true
3         Cc1cnc(C(=O)OCC(=O)NCc2ccccc2)cn1  Coagulation factor XI (Homo sapiens) (UniProt P03951)     false
4                             CNCCCc1ccccc1  Coagulation factor XI (Homo sapiens) (UniProt P03951)     false
5  CCOC(=O)c1c(C)n(Cc2ccccc2)c2ccc(OCC(O)Cn3nc(C)cc3C)cc12 (centres undefined)  Coagulation factor XI (Homo sapiens) (UniProt P03951)     false

Record request — test call for CCn1c(SCC(=O)c2[nH]c(C)c(C(C)=O)c2C)nnc1-c1ccccc1
true

Record request — test call for CCOc1cccc2cc(C(N)=O)c(=NCc3ccccc3)oc12
false

Record request — test call for O=C(Oc1cccc(-n2cnnn2)c1)c1ccco1
true

Record request — test call for COc1ccc(Cn2nnnc2C(c2ccccc2Cl)N2CCC(C(N)=O)CC2)cc1 (centres undefined)
false

Record request — test call for COc1ccc(OCC(=O)Nc2cc(-c3nn(C)c(=O)c4ccccc34)ccc2OC)cc1
false

Record request — test call for CCc1ccc(NC(=O)Cn2nc(C(F)(F)F)c3c2CCC3)cc1
false

Record request — test call for Cc1ccccc1C(=O)N=c1sccn1C
false

Record request — test call for COCCN=C1Sc2nc3c(C)cccc3cc2CN1Cc1ccco1
true

Record request — test call for CCOC(=O)c1cc2c(ccn2C)n1CC(=O)N1CCC(C)CC1
true

Each recorded value in this set is attributed to PubChem BioAssay AID721.
